Numbers sourced from patent US20130116241A1.

Quick list: pIC50 per entry.
target: human PDE10A (UniProt Q9Y233); assay: Measurement of PDE activity (recombinant enzyme, HTRF cAMP kit); assay type: biochemical; settings: Table 1, substrate 20 nM for PDE10, 60 minutes at 29 C, read-out: IC50
Sequence (Q9Y233 290-1055 limits assumed): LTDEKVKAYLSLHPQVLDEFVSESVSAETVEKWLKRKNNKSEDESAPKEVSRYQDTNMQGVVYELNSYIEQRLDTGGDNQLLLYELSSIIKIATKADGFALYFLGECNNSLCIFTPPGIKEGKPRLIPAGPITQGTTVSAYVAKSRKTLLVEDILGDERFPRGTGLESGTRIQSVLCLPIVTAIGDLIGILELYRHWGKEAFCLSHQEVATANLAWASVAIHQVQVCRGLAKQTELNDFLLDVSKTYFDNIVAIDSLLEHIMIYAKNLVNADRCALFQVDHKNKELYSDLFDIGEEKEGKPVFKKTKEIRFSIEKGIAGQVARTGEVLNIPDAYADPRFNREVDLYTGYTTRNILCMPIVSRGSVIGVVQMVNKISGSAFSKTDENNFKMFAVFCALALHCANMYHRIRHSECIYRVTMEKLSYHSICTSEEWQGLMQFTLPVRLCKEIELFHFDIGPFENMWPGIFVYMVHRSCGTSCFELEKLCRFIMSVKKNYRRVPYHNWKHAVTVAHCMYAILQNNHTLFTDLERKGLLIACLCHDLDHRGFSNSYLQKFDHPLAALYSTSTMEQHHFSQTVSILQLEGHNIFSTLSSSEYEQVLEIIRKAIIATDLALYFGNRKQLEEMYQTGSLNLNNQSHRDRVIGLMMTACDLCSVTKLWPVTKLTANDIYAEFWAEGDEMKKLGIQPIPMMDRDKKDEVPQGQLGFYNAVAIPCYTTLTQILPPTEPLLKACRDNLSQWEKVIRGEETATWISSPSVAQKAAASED
pIC50: −log10 of the molar value. Where a name gives a salt, the structure may show the parent alone.
propertyLabel: pIC50

molecule="O=c1c2c(N[C@@H]3CCNC3)cccc2cnn1CCc1cn2ccccc2n1 [Example 219, dihydrochloride]" propertylabel=pIC50 observed="> 7.00"
molecule=O=c1c2c(-c3cnc(C4CC4)nc3)cccc2cnn1CCc1cn2ccccc2n1 propertylabel=pIC50 observed="6.30 to 6.70"
molecule="O=c1c2c(-c3ccc(F)nc3)cccc2ccn1C1CC1c1ccc2ccccc2n1 (single isomer, unassigned)" propertylabel=pIC50 observed="> 7.00"
molecule="O=c1c2cccc(-c3cccnc3)c2ccn1C1CC1c1ccc2ccccc2n1 (stereo not shown)" propertylabel=pIC50 observed="6.70 to 7.00"
molecule="O=c1c2cccc(N3CC4COCC4C3)c2cnn1CCc1cn2ccccc2n1 (stereo not shown) [Example 199, hydrochloride]" propertylabel=pIC50 observed="> 7.00"
molecule=O=c1c2c(Oc3cccnc3)cccc2cnn1CCc1cn2ccccc2n1 propertylabel=pIC50 observed="> 7.00"
molecule="O=c1c2c(-c3cccnc3)cccc2ccn1C1CC1c1ccc2ccccc2n1 (single isomer, unassigned; (-)) [Example 239b]" propertylabel=pIC50 observed="> 7.00"
molecule="Cn1cc(-c2cccc3ccn([C@@H]4C[C@H]4c4ccc5ccccc5n4)c(=O)c23)cn1 (relative stereo)" propertylabel=pIC50 observed="> 7.00"
molecule=O=c1c2c(-c3cncnc3)cccc2cnn1CCc1ccc2ccccc2n1 propertylabel=pIC50 observed="> 7.00"
molecule=Cc1cc(F)ccc1-c1csc2cnn(CCc3ccc4ccccc4n3)c(=O)c12 propertylabel=pIC50 observed="6.30 to 6.70"
molecule="O=c1c2c(NC3CCNCC3)cccc2cnn1CCc1cn2ccccc2n1 [compound 388, dihydrochloride]" propertylabel=pIC50 observed="> 7.00"
molecule=CN1CC(Nc2cccc3cnn(CCc4cn5ccccc5n4)c(=O)c23)C1 propertylabel=pIC50 observed="6.30 to 6.70"
molecule=COc1ccc(-c2csc3cnn(CCc4ccc5ccccc5n4)c(=O)c23)cc1F propertylabel=pIC50 observed="6.30 to 6.70"
molecule=O=C1Cc2ccc(-c3cccc4cnn(CCc5cn6ccccc6n5)c(=O)c34)cc2N1 propertylabel=pIC50 observed="> 7.00"
molecule=O=c1c2c(-c3cccs3)cccc2cnn1CCc1ccc2ccccc2n1 propertylabel=pIC50 observed="6.30 to 6.70"
molecule="O=c1c2c(N3CCCCC3)cccc2cnn1CCc1cn2ccccc2n1 [Example 181, hydrochloride]" propertylabel=pIC50 observed="6.30 to 6.70"
molecule=O=C1Cc2ccc(-c3csc4ccn(CCc5ccc6ccccc6n5)c(=O)c34)cc2N1 propertylabel=pIC50 observed="> 7.00"
molecule="Cn1nccc1-c1csc2ccn(CCc3ccc4ccccc4n3)c(=O)c12 [Example 204, hydrochloride]" propertylabel=pIC50 observed="> 7.00"
molecule="O=c1c2c(N3CCCOCC3)cccc2cnn1CCc1cn2ccccc2n1 [Example 190, hydrochloride]" propertylabel=pIC50 observed="6.70 to 7.00"
